Kindly state log10 Ki for each of the entries shown.
Molecular target: Prolyl 4-hydroxylase subunit alpha-1 (Gallus gallus, UniProt P16924)
Sequence (P16924 whole entry): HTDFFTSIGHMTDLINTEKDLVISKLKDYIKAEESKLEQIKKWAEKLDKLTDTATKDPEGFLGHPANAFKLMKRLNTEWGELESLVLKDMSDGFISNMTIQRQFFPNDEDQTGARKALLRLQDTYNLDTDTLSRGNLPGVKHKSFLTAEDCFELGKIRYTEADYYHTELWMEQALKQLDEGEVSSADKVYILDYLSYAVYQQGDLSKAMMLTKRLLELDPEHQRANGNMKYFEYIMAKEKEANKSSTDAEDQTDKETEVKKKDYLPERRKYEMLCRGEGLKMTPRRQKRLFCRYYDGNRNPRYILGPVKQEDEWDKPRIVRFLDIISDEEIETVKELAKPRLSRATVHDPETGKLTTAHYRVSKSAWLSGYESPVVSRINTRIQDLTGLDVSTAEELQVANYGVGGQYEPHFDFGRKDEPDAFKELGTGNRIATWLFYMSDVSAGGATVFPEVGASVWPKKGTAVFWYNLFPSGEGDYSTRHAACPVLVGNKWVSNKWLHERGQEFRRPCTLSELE
Assay: Inhibition Assay
Note the log scale: values are log10 of Ki expressed in µM.

Notebook entry, Prolyl 4-hydroxylase subunit alpha-1 (Gallus gallus, UniProt P16924) assay: log10 Ki of O=C(O)CCc1ccc(O)c(O)c1 [3-(3,4-dihydroxyphenyl)propanoic acid] = ? 1.11

And what about the compound O=C(O)c1ccccc1O ? 3.36

And what about the compound O=C(O)c1cc(O)cc(O)c1 [3,5-dihydroxybenzoic acid] ? 3.95

And what about the compound O=C(O)c1ccc(O)cc1O ? 2.72

And what about the compound O=C(O)c1ccc(O)c(O)c1 ? 0.70

And what about the compound O=C(O)c1cccc(O)c1O [2,3-Dihydroxybenzoate, IV] ? 1.85

And what about the compound O=C(O)C(O)c1ccc(O)c(O)c1 (stereo unspecified) [3,4-Dihydroxymandelate, XVI] ? 0.95

And what about the compound O=C(O)/C=C/c1ccc(O)c(O)c1 [3,4-Dihydroxycinnamate, XVII] ? 1.26

And what about the compound Oc1ccc(O)cc1 ? 4.15

And what about the compound O=C(O)Cc1ccc(O)c(O)c1 ? 0.95

And what about the compound Oc1cccc(O)c1O ? 1.48

And what about the compound O=C(O)c1cc(O)ccc1O [2,5-Dihydroxybenzoate, VI] ? 3.15

And what about the compound Oc1ccccc1O [1,2-Dihydroxybenzene, XI] ? 1.40

And what about the compound O=C(O)c1cc(O)c(O)c(O)c1 ? 1.48

And what about the compound O=C(O)c1c(O)cccc1O [2,6-Dihydroxybenzoate, VII] ? 3.04

And what about the compound O=C(O)c1ccc(O)cc1 [4-Hydroxybenzoate, III] ? 3.51

And what about the compound Oc1cccc(O)c1 ? 4.01

Sourced from BindingDB's records for PubMed 3011801
